Data origin, for the record: patent US10472341B2

# Tested on: aCD3/aCD28-stimulated human PBMCs
# assay protocol: Cytokine production in aCD3/aCD28 stimulated human PBMCs
# Format: cell-based
# protocol conditions: PBMC, enhancement of IL-2 production, 18 h, read-out: Activity Class IL-2
Counter-ions that a name gives are not always drawn.
Provide the recorded EC50 for the entries that follow.

Q. Find the recorded EC50 belonging to "N[C@H]1CS(=O)(=O)c2ccc(C(=O)N[C@@H]3CC3(F)F)cc2N(Cc2ccc(OC(F)F)cc2)C1=O" and report it.
A. > 5.01 µM

Batch: EC50 for all items listed.
1. N[C@H]1CS(=O)(=O)c2ccc(C(=O)NCC3(F)CCOCC3)cc2N(Cc2ccc(Cl)cc2)C1=O
2. Cl.N[C@H]1CS(=O)(=O)c2cc(F)c(C(=O)NCCC(F)(F)F)cc2N(Cc2ccc(Cl)cc2)C1=O [Example 93, hydrochloride]
3. N[C@H]1CS(=O)(=O)c2ccc(C(=O)NC3CC(F)(F)C3)cc2N(Cc2ccc(Cl)cc2)C1=O
4. CC(C)NC(=O)c1cc2c(cc1F)S(=O)(=O)C[C@H](N)C(=O)N2Cc1ccc(Cl)cc1F.Cl [Example 87, hydrochloride]
5. COc1ccc(CN2C(=O)[C@@H](N)CS(=O)(=O)c3cc(F)c(C(=O)NCC4CCOCC4)cc32)cc1

A.
1.58 to 5.01 µM
< 1.58 µM
1.58 to 5.01 µM
> 5.01 µM
1.58 to 5.01 µM

Q. # lookup: EC50 of CCCCNC(=O)c1cc2c(cn1)S(=O)(=O)C[C@H](N)C(=O)N2Cc1ccc(Cl)cc1 [Example 183, hydrochloride]
A. > 5.01 µM

---

# Test system: aCD3/aCD28-stimulated human PBMCs
# assay protocol: Cytokine production in aCD3/aCD28 stimulated human PBMCs
# Type: cell-based
# protocol conditions: PBMC, enhancement of IL-2 production, 18 h, read-out: Activity Class IL-2
Where a name gives a salt, the structure may show the parent alone.
measurement label: EC50

Q. State the recorded EC50 for this entry: COc1ccc(CN2C(=O)[C@@H](N)CS(=O)(=O)c3cc(F)c(C(=O)NC4CC4(F)F)cc32)cc1C(F)(F)F (stereo partly drawn) [Example 117, hydrochloride]
A. > 5.01 µM

Q. // query: COCCNC(=O)c1ccc2c(c1)N(Cc1ccc(Cl)cc1)C(=O)[C@@H](N)CS2 [Example 20, hydrochloride]
A. > 5.01 µM

Fill in EC50 for each of the 4 compounds listed.
1. N[C@H]1CS(=O)(=O)c2ccc(C(=O)N[C@@H]3C[C@@H]3F)cc2N(Cc2ccc(Cl)cc2)C1=O
2. N[C@H]1CS(=O)(=O)c2cc(F)c(C(=O)NC3CC3(F)F)cc2N(Cc2ccc(F)cc2)C1=O (stereo partly drawn) [Example 130, hydrochloride]
3. N[C@H]1CS(=O)(=O)c2ccc(C(=O)N[C@@H]3CC3(F)F)cc2N(Cc2ccc(Cl)cc2)C1=O
4. CCCCNC(=O)c1cc2c(cc1F)SC[C@H](N)C(=O)N2Cc1ccc(Cl)cc1F.Cl [Example 54, hydrochloride]

A.
> 5.01 µM
> 5.01 µM
1.58 to 5.01 µM
1.58 to 5.01 µM

---

# System: aCD3/aCD28-stimulated human PBMCs
# assay protocol: Cytokine production in aCD3/aCD28 stimulated human PBMCs
# Type: cell-based
# protocol conditions: PBMC, enhancement of IL-2 production, 18 h, read-out: Activity Class IL-2
pEC50: −log10 of the molar value. Counter-ions that a name gives are not always drawn.
For each record, write down the corresponding pEC50.

Examples with their reported pEC50 follow.
Q. Form entry - test system: aCD3/aCD28-stimulated human PBMCs; read-out: pEC50; molecule: Cl.N[C@H]1CS(=O)(=O)c2ccc(C(=O)NCCCC(F)(F)F)cc2N(Cc2ccc(Cl)cc2)C1=O [Example 80, hydrochloride]
A. > 5.80

Q. Moving on to "COc1ccc([C@H](C)NC(=O)c2ccc3c(c2)N(Cc2ccc(Cl)cc2)C(=O)[C@@H](N)CS3)cc1"
A. < 5.30

Q. Next up: Cl.N[C@H]1CS(=O)(=O)c2cc(F)c(C(=O)NCCCC(F)(F)F)cc2N(Cc2ccc(Cl)cc2)C1=O [Example 70, hydrochloride]
A. > 5.80

Q. Try this molecule too: Cl.N[C@H]1CSc2ccc(C(=O)NCCCC(F)(F)F)cc2N(Cc2ccc(OC(F)(F)F)cc2)C1=O [Example 29, hydrochloride]
A. > 5.80

Q. Also need "N[C@H]1CS(=O)(=O)c2ccc(C(=O)NCC3CCOCC3)cc2N(Cc2ccc(OC(F)F)cc2)C1=O" , thanks.
A. < 5.30

Count: 2. Required value per item: pEC50.
1. N[C@H]1CS(=O)(=O)c2ccc(C(=O)N[C@@H]3CCOC3)cc2N(Cc2ccc(Cl)cc2)C1=O
2. N[C@H]1CS(=O)(=O)c2cc(F)c(C(=O)NCc3ccccc3)cc2N(Cc2ccc(F)cc2)C1=O [Example 134, hydrochloride]

A.
["< 5.30", "> 5.80"]

I have 2 molecules here; please give me pEC50 for each one.
1. Cl.N[C@H]1CS(=O)(=O)c2cc(F)c(C(=O)NCc3ccccc3)cc2N(Cc2ccc(Cl)cc2)C1=O [Example 103, hydrochloride]
2. N#Cc1ccc(CN2C(=O)[C@@H](N)CS(=O)(=O)c3cc(F)c(C(=O)NC4CC4(F)F)cc32)cc1 (some centres unmarked) [Example 124, hydrochloride]

A.
> 5.80
< 5.30

---

Exercise: for every item that follows, state its recorded pEC50.
# Test system: CD4 T cells
# assay protocol: CD69 expression on aCD3/aCD28 stimulated isolated human CD4 T cells (flow cytometry)
# Format: cell-based
# protocol conditions: 24 h after TCR stimulation, read-out: Activity Class CD69 (CD4)
pEC50: −log10 of the molar value. Counter-ions that a name gives are not always drawn.

Q. Given the entry Cl.N[C@H]1CS(=O)(=O)c2cc(F)c(C(=O)NCC3CCOCC3)cc2N(Cc2ccc(Cl)cc2)C1=O [Example 71, hydrochloride] , report its measured pEC50.
A. > 5.80

I have 2 compounds here; please give me pEC50 for each one.
1. COc1ccc(CN2C(=O)[C@@H](N)CS(=O)(=O)c3cc(F)c(C(=O)NCC4CCOCC4)cc32)cc1
2. N[C@H]1CS(=O)(=O)c2cc(F)c(C(=O)NC3CC3C(F)(F)F)cc2N(Cc2ccc(Cl)cc2)C1=O (stereo partly drawn) [Example 127, hydrochloride]

A.
["< 5.30", "> 5.80"]

---

# Test system: aCD3/aCD28-stimulated human PBMCs
# assay protocol: Cytokine production in aCD3/aCD28 stimulated human PBMCs
# Type: cell-based
# protocol conditions: PBMC, enhancement of IL-2 production, 18 h, read-out: Activity Class IL-2
Structures can show the parent of a compound that is named as a salt.
Give measured EC50 for each item. Keep answers brief.

Reference set (5 entries):
Q. Look up EC50 for this molecule: "COCCOCCNC(=O)c1cc2c(cc1F)S(=O)(=O)C[C@H](N)C(=O)N2Cc1ccc(Cl)cc1"
A. > 5.01 µM

Q. Could you do the same for CC(C)C(C)NC(=O)c1ccc2c(c1)N(Cc1ccc(Cl)cc1)C(=O)[C@@H](N)CS2(=O)=O.Cl (stereo partly drawn) [Example 83, hydrochloride] , please?
A. > 5.01 µM

Q. Proceed to Cl.N[C@H]1CS(=O)(=O)c2cc(F)c(C(=O)NOc3ccccc3)cc2N(Cc2ccc(OC(F)(F)F)cc2)C1=O [Example 74, hydrochloride]
A. > 5.01 µM

Q. Ok, now Cl.N[C@H]1CS(=O)(=O)c2cc(F)c(C(=O)N[C@@H]3CC3(F)F)cc2N(Cc2ccc(Cl)cc2)C1=O (single isomer, unassigned) [Example 106, hydrochloride]
A. 1.58 to 5.01 µM

Q. Query N[C@H]1CS(=O)(=O)c2cc(F)c(C(=O)NC3CCC(F)(F)CC3)cc2N(Cc2ccc(Cl)cc2)C1=O [Example 126, hydrochloride] next
A. < 1.58 µM

Further cases:
Q. GET /values?readout=EC50&item= "COc1ccc([C@@H](C)NC(=O)c2ccc3c(c2)N(Cc2ccc(Cl)cc2)C(=O)[C@@H](N)CS3)cc1"
A. 1.58 to 5.01 µM

---

# Test system: aCD3/aCD28-stimulated human PBMCs
# assay protocol: Cytokine production in aCD3/aCD28 stimulated human PBMCs
# Assay type: cell-based
# protocol conditions: PBMC, enhancement of IL-2 production, 18 h, read-out: Activity Class IL-2
pEC50: −log10 of the molar value. Where a name gives a salt, the structure may show the parent alone.
measurement label: pEC50

Here's what some known entries look like.
Q. Consider the compound CCCCNC(=O)c1ccc2c(c1)N(Cc1ccc(OC(F)(F)F)cc1)C(=O)[C@@H](N)CS2(=O)=O.Cl [Example 67, hydrochloride] and give its measured pEC50.
A. > 5.80

Q. For Cc1nc(-c2ccc(CN3C(=O)[C@@H](N)CS(=O)(=O)c4ccc(C(=O)NC5CC5(F)F)cc43)cc2)no1 (stereo partly drawn) [Example 121, hydrochloride] then?
A. < 5.30

Q. Also need C[C@@H](NC(=O)c1ccc2c(c1)N(Cc1ccc(Cl)cc1)C(=O)[C@@H](N)CS2)c1ccc(F)cc1.Cl [Example 38, hydrochloride] , thanks.
A. 5.30 to 5.80

Q. What would you report for N[C@H]1C[S@+]([O-])c2cc(F)c(C(=O)NCCCC(F)(F)F)cc2N(Cc2ccc(Cl)cc2)C1=O (single isomer, unassigned) [Example 122, hydrochloride] ?
A. 5.30 to 5.80

Provide pEC50 values for the following items, in order.
1. CC(C)CNNC(=O)c1ccc2c(c1)N(Cc1ccc(Cl)cc1)C(=O)[C@@H](N)CS2.Cl [Example 65, hydrochloride]
2. Cl.N[C@H]1CSc2ccc(C(=O)NCc3ccc(N4CCOCC4)cc3)cc2N(Cc2ccc(OC(F)(F)F)cc2)C1=O [Example 11, hydrochloride]

A.
["5.30 to 5.80", "< 5.30"]
